# key: entry, value: pKi
measurement.target: human α-thrombin (Homo sapiens)
experiment.notes: In vitro assay for determining proteinase inhibition, human α-thrombin
Assay type: biochemical
pKi: −log10 of the molar value.

Cc1nc(N)ccc1CNC(=O)Cn1c(C)cc(S(=O)(=O)NCC2CCC2)c(N)c1=O: > 8.30

Now for the molecule whose pKi we want.
Name the recorded pKi for Cc1nc(N)ccc1CNC(=O)Cn1c(C)cc2c(c1=O)NCN(CC1CC1)S2(=O)=O .
> 8.30
